# procedure-summary: NCI Yeast Anticancer Drug Screen. Data for the rad18 strain (AID 177)
# condition-details: S. cerevisiae rad18 mutant growth inhibition; at 11.0 µM; stronger effect = higher value
This is part of a sample that, as a whole, favours compounds with a hit. Of some 79,000 tested, about 15% had one in any assay.
Assignment: determine reported growth inhibition for the given molecules.
# output: bare number, implied unit %

// growth inhibition value for Cc1ccc(S(=O)(=O)N(C)c2ccc(Cl)cc2C2=NCCc3ccccc32)cc1 : -18

# growth inhibition of CO[C@@]12[C@H](COC(N)=O)C3=C(C(=O)C(C)=C(N)C3=O)N1C[C@@H]1N[C@@H]12 = 84

// field: growth inhibition; key: Nc1nc2c(c(=O)[nH]1)NC(CCNc1ccc(C(=O)O)cc1)CN2 (centres undefined) ; value = -10

growth inhibition measured on CCc1[nH]nc(C(N)=O)c1N=NN(C)C = 28

Notebook: CC1C(C#N)(C#N)C(C#N)=C(N)C1(Cl)[N+](=O)[O-] (centres undefined) , growth inhibition read as 34

// field: growth inhibition; key: O=C(/C=C/c1cccc2ccccc12)c1ccc(Cl)cc1 ; value = 5

Lab book: growth inhibition of COc1ccc(N)c2c1C(=O)c1ccccc1C2=O noted as -10

For this molecule ( Nc1ccc(CCl)cc1Cc1c(O)ccc2ccccc12 ), measured growth inhibition is 7

Entry CC[C@@]1(OC(=O)CCC(=O)O)C(=O)OCc2c1cc1n(c2=O)Cc2cc3ccccc3nc2-1 — recorded growth inhibition = 27

The recorded growth inhibition for Nc1ccc2c(c1)sc1ccccc12 is 27

Documented growth inhibition of S=c1[nH]c2c(Cl)c(Cl)c(Cl)c(Cl)c2[nH]1 : 42

Note to self: growth inhibition recorded for Cc1cc(OCc2ccccc2)ccc1[N+](=O)[O-] was -14

So for N#C/C(=C\c1ccccc1)c1ccccc1F , the logged growth inhibition turned out to be -7

Quick note, growth inhibition for O=S(=O)(c1cc(Cl)ccc1O)c1cc(Cl)ccc1O landed at 98

What the record says about O=Nn1c2ccccc2c2ccccc21 : growth inhibition is -9

The molecule identified as Cc1ccc(I)cc1N=C=S registered its growth inhibition at 41

molecule CCOC(=O)CNC(=O)c1[nH]cnc1/N=N/N(C)C , growth inhibition observed: -13

So for CCNc1ccc2c(c1)C(=O)N(OS(C)(=O)=O)C2=O , the logged growth inhibition turned out to be 3

For reference, reported growth inhibition for CCC(C)(c1ccc(O)c(C)c1)c1ccc(O)c(C)c1 stands at 30

Lookup result for CN(C)c1ccc(/C=C/c2ccnc3ccccc23)cc1N ; measured growth inhibition: -8

So, N#C/C(=C/c1c(Cl)cccc1Cl)C(N)=O ? Its growth inhibition was 6

The molecule listed as CN(C)CC1CCCc2ccccc2C1=O (centres undefined) shows growth inhibition equal to 2

growth inhibition for O=C(O)c1ccccc1.[Ag] is 99

According to the records, this molecule CC(C)(C)c1ccc(O)c(C(c2ccc([N+](=O)[O-])cc2)c2cc(C(C)(C)C)ccc2O)c1 displays growth inhibition of 57

CC(=O)c1cc2c(Cl)cc(Cl)cc2oc1=O has a reported growth inhibition of -11

Recorded growth inhibition (molecule CN(C)Cc1cccc(CN(C)C)[c]1[Sn]([Br])([c]1ccccc1)[c]1ccccc1 ): 74

Recorded result, Cc1ccc(Nc2c3c(c(C#N)c4nc5ccccc5n24)CCCC3)cc1 , growth inhibition: 38

Reported growth inhibition for Nc1nc(N)c2cc(Sc3ccc4ccccc4c3)ccc2n1 was 78

Looking up CCOC(=O)[C@]1(Br)CC[C@@]1(Br)C(=O)OCC , I found its growth inhibition recorded as 8

The molecule listed as O=C1C=CC(=O)N1c1ccc(N2C(=O)C=CC2=O)cc1 shows growth inhibition equal to 100

Sure, the documented growth inhibition for [N-]=[N+]=NC(c1ccccc1)(c1ccccc1)c1ccccc1 is 14

# growth inhibition of O=c1ccc(N=Nc2ccccc2)ccc1O = 97

Consider COc1ccc(N=N/C(=N\NC(=O)c2cc(Br)ccc2O)c2ccc(N(CCC#N)CCC#N)cc2OC)cc1 . Its measured growth inhibition is 18

Summary for this molecule, CCCCOC(=O)CSSCC(=O)OCCCC : growth inhibition is 40

The molecule identified as O=C(Nc1cccc(C(F)(F)F)c1)Oc1ccc(Cl)cc1C(=O)c1ccccc1 registered its growth inhibition at 91

Entry CCCCC(=O)c1c(O)nc2sccn2c1=O ; growth inhibition = 72

// growth inhibition value for Oc1ccc(C=Nc2ccccc2O)cc1 : 76

GET /value?item= Cc1ccc2c(ccc(/C=C/c3ccc(O)c4ncccc34)[n+]2C)c1 &field=growth inhibition returns 80

response.value for COc1cc(/C=C/c2sc3ccccc3[n+]2C)ccc1N(C)C (field: growth inhibition) = 2

Briefly, growth inhibition measured for CCOC(=O)C1=C(C)NC(C)=C(C(=O)OCC)C1c1ccc(C)cc1 : 20

The recorded growth inhibition for NNC(=S)Nc1cccc2ccccc12 is -21

For this molecule ( CCN(CC)CCNC(=O)c1nn(-c2ccc(Cl)cc2)c2c1CCc1cc(OC)ccc1-2 ), measured growth inhibition is 1

Per the records, this molecule ( CCC(c1ccc(O)cc1)C(CC)c1ccc(OCCN)cc1 (centres undefined) ) has growth inhibition equal to -6

Record summary for CCCc1[nH]nc(C(N)=O)c1N=NN(C)C : reported growth inhibition = 32

Entry CC(C)c1cccc(O)c(=O)c1 — recorded growth inhibition = 2

Short answer for O=[N+]([O-])c1c(/C=N/Nc2ccccc2)oc(-c2ccc3c(c2)OCO3)c1-c1ccc2c(c1)OCO2 : growth inhibition was 8

growth inhibition measured on OB(O)c1ccccc1C#Cc1ccccc1B(O)O = 8

The reported growth inhibition of the molecule Cc1ccc(CNc2ccc(Br)cc2)cc1 was -7

Lab note: CCN1/C(=C/c2ccc3ccccc3[n+]2CC)C=Cc2ccccc21 gave growth inhibition of 90

----------
# procedure-summary: NCI Yeast Anticancer Drug Screen. Data for the wt2 strain (AID 169);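 further: 0% = growth of vehicle-treated yeast cultures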
# condition-details: S. cerevisiae wt2 strain growth inhibition; at 11.0 µM
# Procedure: Growth inhibition of yeast strains with defined genetic alterations is measured as a screen for potential anti-cancer activity. Selected strains with alterations in DNA damage repair or cell cycle control were exposed to compounds and growth inhibition was measured relative to vehicle treated controls. The strain used in this assay is wt2
This is part of a sample that, as a whole, favours compounds with a hit. Of some 79,000 tested, about 15% had one in any assay. Calls of active or inactive are those of the source. Rule as the data show it: active = growth inhibition above about 70%; inactive = the rest.
Log the outcome using a class from class 1 for active, class 0 for inactive

## Input // outcome(item) with item = COc1ccc(SCc2cc(OC)ccc2OC)cc1
## Output class 0

## Input Answer briefly: the call reported for Cn1ncc2cc3c(Nc4ccc(Cl)cc4)cccc3nc21 in this assay.
## Output class 0

## Input Hey, what did the test say about COc1cc(CNc2ccc(C(C)C)cc2)cc(OC)c1OC ?
## Output class 0

## Input Identify the outcome logged in this assay for the compound shown: O=c1[nH]cc(/C=N\Nc2ccccc2)c(=O)[nH]1
## Output class 0

## Input State the result this test recorded for S=c1[nH]c2c(Cl)c(Cl)c(Cl)c(Cl)c2[nH]1 .
## Output class 0

## Input Call for entry Nc1ccc(CCl)cc1Cc1c(O)ccc2ccccc12 :
## Output class 0

## Input Dear all, I need the recorded test outcome for O=S(=O)(c1cc(Cl)ccc1O)c1cc(Cl)ccc1O , thank you.
## Output class 1

## Input Name the outcome recorded for O=C1OC2C(O)COC2(OCc2c[nH]c3ccccc23)C1O (configuration not stated) (tested in a mixture with another compound) in the assay.
## Output class 0

## Input Please share the test call associated with CCCCCCCCCCCCCCCCCCNC(=S)/N=C\C1=C(O)c2ccccc2C1=O .
## Output class 0

## Input State the result this test recorded for CC(=O)OCC1OC(O[C@H]2C=C[C@@H](C(=O)OCc3ccccc3)n3c(=O)n(-c4ccccc4)c(=O)n32)C(OC(C)=O)C(OC(C)=O)C1OC(C)=O (some centres not stated) .
## Output class 0

## Input // return assay outcome for COC(=O)c1n[nH]c(C)c1N=NN(C)CCC#N
## Output class 1

## Input Answer briefly: the call reported for N#CC(=S)Nc1cccc(Cl)c1 in this assay.
## Output class 0

## Input Test call, this compound: NP1(Oc2ccc(F)cc2)=NP(N)(Oc2ccc(F)cc2)=NP(Oc2ccc(F)cc2)(Oc2ccc(F)cc2)=N1 (configuration not stated)
## Output class 0

## Input What classification did CCN(CC)CC(O)c1cc(-c2ccc(Cl)cc2)nc2c(-c3ccccc3)cccc12 (configuration not stated) end up with in this test?
## Output class 1

## Input What call does the record list for O=C(/C=C/c1cccc(Br)c1)c1ccc(Cl)cc1 ?
## Output class 0

## Input Test call, this compound: c1ccc2c(c1)ccc1c3ccncc3ccc21
## Output class 1

## Input Hi, do you know how O=S1(=O)c2ccccc2N=C(c2ccccc2Cl)CC1c1ccc(F)cc1 (configuration not stated) came out in this test?
## Output class 0

## Input What classification did O=[N+]([O-])c1cc(S(=O)(=O)Nc2ccccc2)ccc1Cl end up with in this test?
## Output class 0

## Input How was S=c1cn[nH]c2ccc(Br)cc12 classified in this test?
## Output class 0

## Input How was CC(=O)Oc1ccc(N2C(=O)C3c4[nH]c5ccccc5c4C4CCC(C(C)(C)C)CC4C3C2=O)cc1 (configuration not stated) classified in this test?
## Output class 1

## Input Query: recorded result category for O=C1C=CC(=O)N1c1ccc2c(c1)OCO2 in this test
## Output class 1

## Input Please indicate how the test categorized CC1C(C#N)(C#N)C(C#N)=C(N)C1(Cl)[N+](=O)[O-] (configuration not stated) .
## Output class 0
